The origin of these recorded values is patent US7067520B2.

Measured melting point accompanies every entry in the list below.
measured.parameter: melting point

smiles_text=CSc1nc2ccnn2c(NOCc2ccccc2)c1C#N test_result="177 to 178 °C"
smiles_text=CSc1nc2ccnn2c(Nc2ccccc2Cl)c1C#N test_result="201 to 202 °C"
smiles_text=CSc1nc2ccnn2c(Nc2ccc(S(N)(=O)=O)cc2)c1C#N test_result="285 to 288 °C (dec.)"
smiles_text=CSc1nc2cc(C)nn2c(Nc2cccc(C#N)c2)c1C#N test_result="235 to 238 °C"
smiles_text=CCSc1nc2ccnn2c(N)c1C#N test_result="> 240 °C"
smiles_text=COC(=O)c1c(SC)nc2ccnn2c1Cl test_result="105 to 113 °C"
smiles_text=CSc1nc2ccnn2c(NCc2ccccc2)c1C(=O)O test_result="162.7 to 164 °C"
smiles_text=CCOCNc1c(C#N)c(SC)nc2ccnn12 test_result="132 to 133 °C"
smiles_text=COc1c(C#N)c(SC)nc2ccnn12 test_result="223 to 224 °C"
smiles_text=CSc1nc2ccnn2c(O)c1C#N test_result="> 250 °C"
smiles_text=COc1ccc(Nc2c(C#N)c(SC)nc3ccnn23)cc1 test_result="214 to 215 °C"
smiles_text=CSc1nc2ccnn2c(Nc2ccncc2)c1C#N test_result="260 to 263 °C"
smiles_text=CSc1nc2ccnn2c(Nc2ccc(Cl)cc2)c1C#N test_result="275 to 276 °C"
